# pEC50 per entry
measured-target: JAK3 (Homo sapiens, UniProt P52333)
Construct: All four purified enzymes contain only the catalytic domain; His (N)
Sequence (P52333 822-1111 limits assumed): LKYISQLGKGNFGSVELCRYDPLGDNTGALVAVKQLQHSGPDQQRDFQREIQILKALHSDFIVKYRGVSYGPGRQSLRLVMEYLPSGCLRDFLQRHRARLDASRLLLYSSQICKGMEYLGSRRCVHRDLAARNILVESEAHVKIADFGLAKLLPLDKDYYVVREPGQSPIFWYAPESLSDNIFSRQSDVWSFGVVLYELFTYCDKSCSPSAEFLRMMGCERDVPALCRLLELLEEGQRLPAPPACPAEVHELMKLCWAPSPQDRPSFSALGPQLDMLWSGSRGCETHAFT
protocol-summary: JAK3 kinase assay (HTRF, inhibition of phosphorylation of a synthetic peptide)
reported-conditions: catalytic domain, His-tag; 2 μM ATP (Km); read-out: JAK3 kinase inhibitory activity (EC50)
pEC50: −log10 of the molar value.

Recorded pEC50, per entry:
- Cn1cc(S(N)(=O)=O)cc1C(=O)N1CCN(c2ncnc3[nH]ccc23)CC2(CC2)C1: 6.00 to 7.00
- N#Cc1cccc(CC(=O)N2CCCN(c3ncnc4[nH]ccc34)CC23CC3)c1: < 6.00
- O=C(c1c[nH]cn1)N1CCCN(c2ncnc3[nH]ccc23)CC12CC2: 6.00 to 7.00
- CN1CC(=O)N(CC(=O)N2CCN(c3ncnc4[nH]ccc34)CC3(CC3)C2)C1=O: 6.00 to 7.00
- N#CC1(C(=O)N2CCN(c3ncnc4[nH]ccc34)CC3(CC3)C2)CCCC1: 6.00 to 7.00

# lookup: pEC50 of `Cc1[nH]ncc1C(=O)N1CCCN(c2ncnc3[nH]ccc23)CC12CC2` < 6.00

Quick one: `CN(CCC#N)S(=O)(=O)N1CCN(c2ncnc3[nH]ccc23)CC2(CC2)C1` < 6.00

Quick one: `O=C(c1ccccn1)N1CCN(c2ncnc3[nH]ccc23)CC2(CC2)C1` < 6.00

Quick one: `N#Cc1cc(CC(=O)N2CCN(c3ncnc4[nH]ccc34)CC3(CC3)C2)ccc1F` 6.00 to 7.00

Quick one: `CCN(CCC#N)C(=O)N1CCN(c2ncnc3[nH]ccc23)CC2(CC2)C1` 6.00 to 7.00

Quick one: `O=C(c1cncc(F)c1)N1CCCN(c2ncnc3[nH]ccc23)CC12CC2` 6.00 to 7.00

---

measured-target: JAK3 (Homo sapiens, UniProt P52333)
Construct: All four purified enzymes contain only the catalytic domain; His (N)
protocol-summary: JAK3 kinase assay (HTRF, inhibition of phosphorylation of a synthetic peptide)
reported-conditions: catalytic domain, His-tag; 2 μM ATP (Km); read-out: JAK3 kinase inhibitory activity (EC50)
pEC50: −log10 of the molar value.
value-kind: pEC50

# lookup: pEC50 of `N#Cc1ccc2[nH]c(C(=O)N3CCN(c4ncnc5[nH]ccc45)CC4(CC4)C3)cc2c1` 6.00 to 7.00

Quick one: CC1CN(c2ncnc3[nH]ccc23)CC2(CC2)CN1C(=O)Nc1ccccc1 (stereo not drawn) < 6.00

Quick one: `O=C(c1cncnc1)N1CCCN(c2ncnc3[nH]ccc23)CC12CC2` < 6.00

Quick one: `CNS(=O)(=O)c1cc(C(=O)N2CCN(c3ncnc4[nH]ccc34)CC3(CC3)C2)sc1C` 6.00 to 7.00

---

measured-target: JAK3 (Homo sapiens, UniProt P52333)
Construct: All four purified enzymes contain only the catalytic domain; His (N)
protocol-summary: JAK3 kinase assay (HTRF, inhibition of phosphorylation of a synthetic peptide)
reported-conditions: catalytic domain, His-tag; 2 μM ATP (Km); read-out: JAK3 kinase inhibitory activity (EC50)
pEC50: −log10 of the molar value.
value-kind: pEC50

Recorded pEC50, per entry:
- Cc1cc(C(=O)N2CCN(c3ncnc4[nH]ccc34)CC3(CC3)C2)n(C)n1: < 6.00
- NS(=O)(=O)c1ccc(-c2ccc(C(=O)N3CCN(c4ncnc5[nH]ccc45)CC4(CC4)C3)o2)cc1: 6.00 to 7.00
- NS(=O)(=O)c1ccc(C(=O)N2CCN(c3ncnc4[nH]ccc34)CC3(CC3)C2)cc1Cl: 6.00 to 7.00
- O=C(Nc1ccccc1)N1CCCN(c2ncnc3[nH]ccc23)CC12CC2: 6.00 to 7.00
- Cc1ncccc1C(=O)N1CCCN(c2ncnc3[nH]ccc23)CC12CC2: < 6.00

# lookup: pEC50 of `Cc1c[nH]c(C(=O)N2CCCN(c3ncnc4[nH]ccc34)CC23CC3)c1` 6.00 to 7.00

Quick one: `N#Cc1ccc(C(=O)C(=O)N2CCN(c3ncnc4[nH]ccc34)CC3(CC3)C2)cc1` < 6.00

Quick one: `O=C(N1CCN(c2ncnc3[nH]ccc23)CC2(CC2)C1)C1(c2ccccc2)CC1` < 6.00

Quick one: `Cc1nc(C)c(CC(=O)N2CCCN(c3ncnc4[nH]ccc34)CC23CC3)s1` < 6.00
